# SYSTEM: Toll-like receptor 7 (Homo sapiens)
# PROTOCOL NOTES: Inhibition of human TLR7 expressed in HEK293 cells assessed as decrease in R848-induced NF-kappaB activation-mediated SEAP production at 40 uM after 24 hrs by Quanti-blue-based assay relative to control
# Format: cell-based
For each record, write down the corresponding inhibition.
Lab book: enter the figure in %, no units written.

Task item: # input compound: O=C(NNC(=O)c1nccs1)c1ccc(Cl)cc1 ; wanted: its inhibition
Reply: 24

Task item: Also need O=C(NNC(=O)c1ccccn1)c1ccc(Br)cc1 , thanks.
Reply: 82.3

Task item: Follow-up entry: O=C(NNC(=O)c1ccccn1)c1ccc(C(F)(F)F)cc1
Reply: 85.4

Task item: What do you get for Nc1nccnc1C(=O)NNC(=O)c1ccc(C(F)(F)F)cc1 ?
Reply: 79

Task item: Same question for Cc1nc(C(=O)NNC(=O)c2cccnc2)cs1 please.
Reply: 21
